Counter-ions that a name gives are not always drawn.
The reader will find reported melting point values listed item by item below.
VALUE_TYPE: melting point

> print(dat)
                                    compound  reported.value
 1  NC[C@H]1C=Cc2cc(F)cc(-c3c(Cl)cccc3Cl)c2O1 (as salt: hydrochloride)   153 to 155 °C
 2  CCNC[C@H]1CCc2cc(F)cc(-c3c(Cl)cccc3Cl)c2O1 (as salt: hydrochloride)        > 225 °C
 3  NC[C@H]1CCc2cc(F)cc(-c3c(Cl)cccc3Cl)c2O1 (as salt: hydrochloride)   190 to 192 °C
 4  NC[C@H]1CCc2ccc(F)c(-c3ccccc3Cl)c2O1 (as salt: hydrochloride)   223 to 225 °C
 5  Cc1ccccc1-c1c(Cl)ccc2c1O[C@@H](CN)CC2 (as salt: hydrochloride)          155 °C
 6  NC[C@H]1CCc2cccc(-c3c(Cl)cccc3Cl)c2O1 (as salt: hydrochloride)   188 to 190 °C
 7  COc1ccccc1-c1cc(F)cc2c1O[C@@H](CN)CC2 (as salt: hydrochloride)   100 °C (dec.)
 8  NC[C@H]1C=Cc2cc(F)cc(-c3ccccc3Cl)c2O1 (as salt: hydrochloride)   145 to 147 °C
 9  NC[C@H]1CCc2ccc(F)c(-c3ccc(Cl)cc3Cl)c2O1 (as salt: hydrochloride)   164 to 166 °C
10  NC[C@H]1CCc2ccc(Cl)c(-c3ccccc3Cl)c2O1 (as salt: hydrochloride)   220 to 222 °C
11  Cc1cc(Cl)ccc1-c1c(F)ccc2c1O[C@@H](CN)CC2 (as salt: hydrochloride)   100 to 102 °C
12  NC[C@H]1C=Cc2cc(F)cc(-c3cc(Cl)ccc3Cl)c2O1 (as salt: hydrochloride)   217 to 219 °C
13  COc1ccccc1-c1cc(F)cc2c1O[C@@H](CN)C=C2 (as salt: hydrochloride)   198 to 200 °C
14  NC[C@H]1CCc2cc(F)cc(-c3ccccc3-c3ccccc3)c2O1 (as salt: hydrochloride)           98 °C
